# measurement-target: T1, EGFR (recombinant human, BLI antigen) (human, UniProt P00533 25-645)
# T1 construct: also called rh-EGFR; human EGFR
# experiment-notes: BLI (Octet) as in Example 1
assay-metric: kon (M⁻¹ s⁻¹)

Sample records with kon:
binder	kon / M⁻¹ s⁻¹
pgEG5 (VHH, not shown: small tags and cut ends) VHH: QVQLVESGGGLVQPGGSLRLSCTASHNIFSDNAMAWSRQAPGAQRELVARIATGGNTYYPDSVKGRFTISRDNAKNTVYLQMNNLTPDDTAVYYCYAERWTGLEYSRTYWGQGTQVTVSS	124000
pgEG12 (VHH, not shown: small tags and cut ends) VHH: QVQLVESGGGLVQAGGSLSLSCTASRNIFSINVMSWYRQAPGKQREFVASITREDFPYYTDSVKGRFTVTRDIANNKVHLQMNSLKLEDTAVYYCNAYYRSDNYWGQGTQVTVSS	201000

a. pgEG1 (VHH, not shown: small tags and cut ends) VHH: QVQLVESGGGLVQPGGSLRLSCAASGIIFEAEAMGWVRQAPGKQRESVAFIGSGGNTNVGWSVKGRFTISRDNAKNTLYLQMNSLRPEDTAVYYCNTHPLRSWGQGTQVTVS
b. pgEG6 (VHH, not shown: small tags and cut ends) VHH: QVQLVESGGGLVQPGGSLRLSCVASGIIFEAEAMGWYRQAPGKQRESVAFIGSGGNTNVGWSVKGRFTISRDNAKNTVYLQMNSLKPEDTAVYYCNTHPLRSWGQGTQVTVSS
Problem: Which of these two has the smaller recorded kon: a or b ? # reply format: chosen label
Result: a
